meta.source: patent US7115624B1

EXPERIMENTAL_TARGET: PTPα (Homo sapiens, UniProt P18433)
Construct: PTPα D1
Sequence (P18433 241-501 limits assumed): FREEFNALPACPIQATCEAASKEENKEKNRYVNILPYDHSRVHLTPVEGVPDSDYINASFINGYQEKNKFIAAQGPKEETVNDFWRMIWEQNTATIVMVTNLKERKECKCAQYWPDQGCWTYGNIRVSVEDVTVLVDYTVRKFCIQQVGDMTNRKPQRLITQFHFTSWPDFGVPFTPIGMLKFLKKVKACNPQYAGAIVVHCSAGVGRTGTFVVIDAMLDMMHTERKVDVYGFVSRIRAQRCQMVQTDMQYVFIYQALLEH
TEST_NAME: PTPase inhibition, p-nitrophenyl phosphate substrate, Ki
Format: biochemical
RUN_CONDITIONS: pH 5.5; D1; read-out: Ki values, PTPα D1

| SMILES_STRUCTURE | SCALE_UNIT | SIGN_QUALIFIER | Ki |
| --- | --- | --- | --- |
| O=C(O)C(=O)Nc1ccccc1C(=O)O | µM | = | 700 |
| O=C(O)C(=O)Nc1sc2c(c1C(=O)O)CCOC2 | µM | = | 270 |
| O=C(O)C(=O)Nc1sc2c(c1C(=O)O)CCCC2 | µM | = | 300 |
| O=C(O)C(=O)Nc1sc2c(c1C(=O)O)CCNC2 | µM | > | 2000 |
| O=C(O)C(=O)Nc1sccc1C(=O)O | µM | = | 1700 |
| O=C(O)C(=O)Nc1ccsc1C(=O)O | µM | = | 500 |

====

EXPERIMENTAL_TARGET: PTPε (Homo sapiens, UniProt P23469)
Construct: PTPε D1
Sequence (P23469 135-394 limits assumed): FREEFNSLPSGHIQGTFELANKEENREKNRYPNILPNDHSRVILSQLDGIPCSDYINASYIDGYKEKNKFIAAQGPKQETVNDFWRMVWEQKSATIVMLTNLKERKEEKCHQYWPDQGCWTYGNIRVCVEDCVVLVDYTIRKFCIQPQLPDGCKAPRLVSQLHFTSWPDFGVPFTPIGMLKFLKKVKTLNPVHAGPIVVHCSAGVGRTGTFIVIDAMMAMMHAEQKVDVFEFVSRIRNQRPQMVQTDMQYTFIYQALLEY
TEST_NAME: PTPase inhibition, p-nitrophenyl phosphate substrate, Ki
Format: biochemical
RUN_CONDITIONS: pH 7.0 (Table 5); read-out: Ki values, PTPε

| COMPOUND | SCALE_UNIT | Ki |
| --- | --- | --- |
| O=C(O)C(=O)Nc1sc2c(c1C(=O)O)CCOC2COC1=NS(=O)(=O)c2ccccc21 (stereo not shown) | µM | 460 |

====

EXPERIMENTAL_TARGET: LAR (Homo sapiens, UniProt P10586)
Sequence (P10586 1285-1907 limits assumed): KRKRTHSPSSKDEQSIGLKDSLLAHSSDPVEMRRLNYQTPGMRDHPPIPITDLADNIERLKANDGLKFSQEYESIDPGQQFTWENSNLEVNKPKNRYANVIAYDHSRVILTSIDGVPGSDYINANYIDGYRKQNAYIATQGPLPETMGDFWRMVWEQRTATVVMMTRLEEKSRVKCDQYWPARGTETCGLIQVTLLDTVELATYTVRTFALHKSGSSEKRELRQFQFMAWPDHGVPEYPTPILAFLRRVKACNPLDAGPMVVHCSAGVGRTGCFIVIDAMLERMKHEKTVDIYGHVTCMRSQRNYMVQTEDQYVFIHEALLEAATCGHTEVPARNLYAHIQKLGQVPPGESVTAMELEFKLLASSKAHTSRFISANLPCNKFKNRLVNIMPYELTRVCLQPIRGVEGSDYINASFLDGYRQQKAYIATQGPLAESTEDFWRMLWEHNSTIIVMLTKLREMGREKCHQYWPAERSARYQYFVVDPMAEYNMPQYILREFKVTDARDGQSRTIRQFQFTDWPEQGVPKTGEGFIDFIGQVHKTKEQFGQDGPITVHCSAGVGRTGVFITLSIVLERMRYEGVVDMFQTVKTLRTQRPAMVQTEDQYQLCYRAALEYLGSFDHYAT
TEST_NAME: PTPase inhibition, p-nitrophenyl phosphate substrate, Ki
Type: biochemical
RUN_CONDITIONS: pH 5.5; D1D2; read-out: Ki values, LAR D1D2
pKi: −log10 of the molar value.
Some compounds, each annotated with its measured pKi.
PROPERTY_MEASURED: pKi

| COMPOUND | PROPERTY_MEASURED | RESULT |
| --- | --- | --- |
| O=C(O)C(=O)Nc1ccccc1C(=O)O [OBA, 2-(oxalyl-amino)-benzoic acid] | pKi | < 2.70 |
| O=C(O)C(=O)Nc1sccc1C(=O)O [Example 2-OTA] | pKi | < 2.70 |
| O=C(O)C(=O)Nc1ccsc1C(=O)O [Example 3-OTA] | pKi | < 2.70 |
| O=C(O)C(=O)Nc1sc2c(c1C(=O)O)CCNC2 [Example 2-OTPyA] | pKi | < 2.70 |
| O=C(O)C(=O)Nc1sc2c(c1C(=O)O)CCCC2 [Example 2-OBTA] | pKi | 3.40 |

====

EXPERIMENTAL_TARGET: PTPε (Homo sapiens, UniProt P23469)
Construct: PTPε D1
TEST_NAME: PTPase inhibition, p-nitrophenyl phosphate substrate, Ki
Assay type: biochemical
RUN_CONDITIONS: pH 5.5; D1; read-out: Ki values, PTPε D1
Parameter: Ki. Scope: all listed entries.

| SMILES_STRUCTURE | Ki |
| --- | --- |
| O=C(O)C(=O)Nc1sc2c(c1C(=O)O)CCNC2 | 600 µM |
| O=C(O)C(=O)Nc1sccc1C(=O)O | 590 µM |
| O=C(O)C(=O)Nc1ccsc1C(=O)O | 350 µM |
| O=C(O)C(=O)Nc1sc2c(c1C(=O)O)CCCC2 | 45 µM |
| O=C(O)C(=O)Nc1ccccc1C(=O)O | 125 µM |

====

EXPERIMENTAL_TARGET: GLEPP1 (Homo sapiens, UniProt Q16827)
Sequence (Q16827 938-1195 limits assumed): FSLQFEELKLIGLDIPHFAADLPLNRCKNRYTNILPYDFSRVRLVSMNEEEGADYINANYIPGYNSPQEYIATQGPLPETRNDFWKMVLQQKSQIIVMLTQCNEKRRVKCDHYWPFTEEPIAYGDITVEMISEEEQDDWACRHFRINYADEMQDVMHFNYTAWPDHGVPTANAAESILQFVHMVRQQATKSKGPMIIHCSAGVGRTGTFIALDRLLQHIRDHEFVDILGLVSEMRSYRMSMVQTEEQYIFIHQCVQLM
pKi: −log10 of the molar value.
PROPERTY_MEASURED: pKi

| COMPOUND | MEASURED_NUMBER |
| --- | --- |
| O=C(O)C(=O)Nc1sc2c(c1C(=O)O)CCOC2COC1=NS(=O)(=O)c2ccccc21 (stereo not shown) | 3.82 |

====

EXPERIMENTAL_TARGET: CD45 (Homo sapiens, UniProt P08575)
Sequence (P08575 599-1306 limits assumed): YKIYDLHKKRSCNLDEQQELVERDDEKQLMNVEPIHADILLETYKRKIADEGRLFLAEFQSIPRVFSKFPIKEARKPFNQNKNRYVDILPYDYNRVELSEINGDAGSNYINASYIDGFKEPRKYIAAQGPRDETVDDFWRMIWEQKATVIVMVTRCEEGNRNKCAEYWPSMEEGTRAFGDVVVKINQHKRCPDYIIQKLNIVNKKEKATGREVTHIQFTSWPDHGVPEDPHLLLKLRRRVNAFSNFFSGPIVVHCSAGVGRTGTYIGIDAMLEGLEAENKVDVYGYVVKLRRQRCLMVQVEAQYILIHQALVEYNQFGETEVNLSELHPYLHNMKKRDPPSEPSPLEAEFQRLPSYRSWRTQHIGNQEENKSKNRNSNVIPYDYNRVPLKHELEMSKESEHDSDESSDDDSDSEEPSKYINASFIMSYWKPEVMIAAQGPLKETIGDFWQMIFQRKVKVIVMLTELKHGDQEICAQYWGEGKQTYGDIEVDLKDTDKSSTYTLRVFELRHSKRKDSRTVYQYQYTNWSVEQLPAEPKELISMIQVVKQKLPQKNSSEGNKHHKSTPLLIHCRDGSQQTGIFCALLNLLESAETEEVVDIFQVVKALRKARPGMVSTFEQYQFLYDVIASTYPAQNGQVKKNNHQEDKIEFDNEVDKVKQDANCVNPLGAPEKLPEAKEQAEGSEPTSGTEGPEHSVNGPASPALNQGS
TEST_NAME: PTPase inhibition, p-nitrophenyl phosphate substrate, Ki
Assay type: biochemical
RUN_CONDITIONS: pH 5.5; D1D2; read-out: Ki values, CD45 D1D2
pKi: −log10 of the molar value.
# binarize pKi: threshold 4 inclusive, high side Y, low side N

| COMPOUND | ANSWER_LABEL |
| --- | --- |
| O=C(O)C(=O)Nc1ccsc1C(=O)O [Example 3-OTA] | N |
| O=C(O)C(=O)Nc1sc2c(c1C(=O)O)CCCC2 [Example 2-OBTA] | Y |
| O=C(O)C(=O)Nc1sccc1C(=O)O [Example 2-OTA] | Y |
| O=C(O)C(=O)Nc1ccccc1C(=O)O [OBA, 2-(oxalyl-amino)-benzoic acid] | N |

====

EXPERIMENTAL_TARGET: UniProtKB P18031
Sequence (P18031 1-321): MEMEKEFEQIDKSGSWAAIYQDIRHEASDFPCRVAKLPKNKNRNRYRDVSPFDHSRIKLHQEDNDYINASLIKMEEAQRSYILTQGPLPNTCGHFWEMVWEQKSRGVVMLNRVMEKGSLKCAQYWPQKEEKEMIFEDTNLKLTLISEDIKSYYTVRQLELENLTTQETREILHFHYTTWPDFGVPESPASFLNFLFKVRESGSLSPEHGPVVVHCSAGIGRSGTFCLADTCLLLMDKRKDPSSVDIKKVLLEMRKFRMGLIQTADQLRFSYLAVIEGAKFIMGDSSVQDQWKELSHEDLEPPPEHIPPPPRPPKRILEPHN
TEST_NAME: PTPase inhibition, p-nitrophenyl phosphate substrate, Ki
Assay type: biochemical
RUN_CONDITIONS: pH 7 (Table 3); read-out: Ki values, PTP1B
PROPERTY_MEASURED: Ki

| COMPOUND | RESULT |
| --- | --- |
| O=C(O)C(=O)Nc1sc2c(c1C(=O)O)CC(CN1C(=O)c3cccc(O)c3C1=O)OC2 (stereo not shown) | 1.9 µM |

====

EXPERIMENTAL_TARGET: UniProtKB P10586
Sequence (P10586 1285-1907 limits assumed): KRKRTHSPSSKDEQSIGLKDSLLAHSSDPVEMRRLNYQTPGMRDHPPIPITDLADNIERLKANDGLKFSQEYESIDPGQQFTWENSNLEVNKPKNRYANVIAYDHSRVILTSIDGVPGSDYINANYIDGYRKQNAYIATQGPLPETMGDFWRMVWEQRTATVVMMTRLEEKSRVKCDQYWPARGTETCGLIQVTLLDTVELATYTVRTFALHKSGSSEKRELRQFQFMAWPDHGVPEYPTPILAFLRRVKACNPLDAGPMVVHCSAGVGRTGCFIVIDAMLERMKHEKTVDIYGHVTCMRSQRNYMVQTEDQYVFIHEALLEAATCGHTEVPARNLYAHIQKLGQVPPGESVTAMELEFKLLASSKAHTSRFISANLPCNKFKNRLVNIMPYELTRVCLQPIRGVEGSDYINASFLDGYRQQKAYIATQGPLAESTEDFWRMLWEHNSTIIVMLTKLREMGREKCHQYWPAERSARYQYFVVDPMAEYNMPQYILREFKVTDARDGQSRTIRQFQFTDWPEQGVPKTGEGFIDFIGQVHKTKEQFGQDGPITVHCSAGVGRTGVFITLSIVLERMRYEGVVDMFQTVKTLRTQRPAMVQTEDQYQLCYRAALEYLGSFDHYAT
TEST_NAME: PTPase inhibition, p-nitrophenyl phosphate substrate, Ki
Format: biochemical
RUN_CONDITIONS: pH 7.0 (Table 5); read-out: Ki values, LAR
pKi: −log10 of the molar value.

| COMPOUND | pKi |
| --- | --- |
| O=C(O)C(=O)Nc1sc2c(c1C(=O)O)CCOC2COC1=NS(=O)(=O)c2ccccc21 (stereo not shown) | 3.92 |
